- Procedure Text: self-splicing fitness, log relative to wild type (ln ratio); higher = more splicing; Tetrahymena group I intron in knt gene, E. coli kanamycin selection, DiMSum; sequences stand for … in CUCUCU…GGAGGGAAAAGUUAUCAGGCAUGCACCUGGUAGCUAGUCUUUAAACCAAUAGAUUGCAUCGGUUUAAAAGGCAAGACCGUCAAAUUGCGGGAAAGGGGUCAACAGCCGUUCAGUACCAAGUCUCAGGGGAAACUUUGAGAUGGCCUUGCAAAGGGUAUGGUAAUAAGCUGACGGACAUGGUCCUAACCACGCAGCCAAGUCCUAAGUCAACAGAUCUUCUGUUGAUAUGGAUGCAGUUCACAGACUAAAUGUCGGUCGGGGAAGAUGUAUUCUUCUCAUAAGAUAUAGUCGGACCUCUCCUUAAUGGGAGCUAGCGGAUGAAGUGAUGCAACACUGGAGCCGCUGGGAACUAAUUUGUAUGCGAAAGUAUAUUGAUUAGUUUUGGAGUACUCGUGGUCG;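 further: selection with 25 µg/mL kanamycin versus none on LB agar overnight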
- Experimental Parameters: 30 °C
For each of the sequences below, state its self-splicing fitness (ln).
Field format: numeric only.

Quick one: give measured self-splicing fitness (ln) for GAGCAGCAAUAUUACGGUCC
-2.93

Indicate its recorded self-splicing fitness (ln); the sequence in question is UCGAAGCAAUAUUACGAUAG
-2.95

Query self-splicing fitness (ln) for ACGUAGCAAUAUUACGUUGU
-3.07

Complete the entry with self-splicing fitness (ln) for AGGCAGCAAUAUUACGUAGG
-2.04

* * *

- Procedure Text: self-splicing fitness, log relative to wild type (ln ratio); higher = more splicing; Tetrahymena group I intron in knt gene, E. coli kanamycin selection, DiMSum; sequences stand for … in CUCUCU…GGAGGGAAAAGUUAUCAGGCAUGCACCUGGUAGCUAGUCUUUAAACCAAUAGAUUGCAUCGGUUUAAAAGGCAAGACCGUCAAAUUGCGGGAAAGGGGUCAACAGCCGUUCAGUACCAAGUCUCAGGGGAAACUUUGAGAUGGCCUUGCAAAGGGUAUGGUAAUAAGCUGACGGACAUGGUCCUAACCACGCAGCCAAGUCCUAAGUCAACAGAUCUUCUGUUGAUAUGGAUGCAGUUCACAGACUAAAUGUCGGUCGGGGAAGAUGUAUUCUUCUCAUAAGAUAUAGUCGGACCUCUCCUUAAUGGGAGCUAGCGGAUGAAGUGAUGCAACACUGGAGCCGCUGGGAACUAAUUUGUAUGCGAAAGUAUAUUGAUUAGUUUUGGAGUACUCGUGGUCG
- Experimental Parameters: 30 °C
# self-splicing fitness (ln) binned as LOW = under -3, MEDIUM = from -3 up to -2, HIGH = -2 and over

Note: place this sequence into its band. Item: GGUCAGCAAUAUUACGCAAC
HIGH

Textbook exercise: identify the category of the sequence given here, CCCAAGCAAUAUUACGUACG , according to its measured value.
LOW

Which class holds UCCUAGCAAUAUUACGGUGG ?
LOW

State the band of ACGCAGCAAUAUUACGUUUC
LOW

Classify this sequence: UGAUAGCAAUAUUACGCUGC
LOW

State the class of the sequence shown: ACCGAGCAAUAUUACGUCCU
HIGH

Dear colleague, I would appreciate it if you could identify the bin for AAAAAGCAAUAUUACGCGAA and reply at your convenience.
MEDIUM

Note: place this sequence into its band. Item: GUUGAGCAAUAUUACGGCGU
HIGH

Bin? CCUGAGCAAUAUUACGCCUC
MEDIUM

Which bin, given its self-splicing fitness (ln), does AUGCAGCAAUAUUACGACAC occupy?
HIGH

Form: Item = CCGAAGCAAUAUUACGGGGA ; Class = ?
LOW

For GUAGAGCAAUAUUACGUCUC , which self-splicing fitness (ln) bin applies?
HIGH

For AAUAAGCAAUAUUACGGUGA , which self-splicing fitness (ln) bin applies?
HIGH

Hi there! Could you help me figure out the category for GAUAAGCAAUAUUACGCGAC please?
HIGH

Please indicate the class for UAGCAGCAAUAUUACGUGAA based on its self-splicing fitness (ln).
HIGH

Hello team, could you let me know which band the following sequence falls into: UACGAGCAAUAUUACGGAAU
MEDIUM

Which category does the recorded self-splicing fitness (ln) put UGACAGCAAUAUUACGGCCA in?
HIGH

Lab note: sort CAACAGCAAUAUUACGAACU into the matching self-splicing fitness (ln) band.
LOW

Categorize the following entry: CCGUAGCAAUAUUACGAUUG
HIGH
